Just for reference, paper PMC9848257 is where these values come from.

PARAMETER_MEASURED: melting point

Brc1ccc(-c2nnc(N3c4ccccc4C=Cc4ccccc43)o2)cc1; 185 to 187 °C
O=C(NNC(=O)N1c2ccccc2C=Cc2ccccc21)c1ccc(Cl)cc1; 229 to 231 °C
C1=Cc2ccccc2N(c2nnc(-c3ccccc3)o2)c2ccccc21; 209 to 211 °C

Identify measured melting point corresponding to O=C(Cc1ccccc1)NNC(=O)N1c2ccccc2C=Cc2ccccc21
134 to 136 °C

Specify measured melting point for O=C(NNC(=O)N1c2ccccc2C=Cc2ccccc21)c1ccccc1 .
222 to 224 °C

Fill in reported melting point for this entry: O=[N+]([O-])c1ccc(-c2nnc(N3c4ccccc4C=Cc4ccccc43)o2)cc1
146 to 148 °C

Consider the compound O=C(NNC(=O)N1c2ccccc2C=Cc2ccccc21)c1ccc([N+](=O)[O-])cc1 . State its measured melting point.
241 to 243 °C

Return reported melting point. Input compound: C1=Cc2ccccc2N(c2nnc(-c3ccc4ccccc4c3)o2)c2ccccc21
201 to 203 °C

---

# System: CAKI-1
# PROCEDURE_SUMMARY: NCI-60 one-dose screen, CAKI-1
# Type: cell-based
# RUN_CONDITIONS: Homo sapiens; CAKI-1, renal cancer; single dose 10 μM; read-out: Growth inhibition %
PARAMETER_MEASURED: inhibition at 10 µM

Example compounds with recorded inhibition at 10 µM:
O=[N+]([O-])c1ccc(-c2nnc(N3c4ccccc4C=Cc4ccccc43)o2)cc1 [Compound 5e]; 29.7%
Clc1ccc(-c2nnc(N3c4ccccc4C=Cc4ccccc43)o2)cc1 [Compound 5c]; 28.5%
C1=Cc2ccccc2N(c2nnc(Cc3ccccc3)o2)c2ccccc21 [Compound 5g]; < 10%
O=C(Cc1ccccc1)NNC(=O)N1c2ccccc2C=Cc2ccccc21 [Compound 4g]; < 10%
Cc1ccc(C(=O)NNC(=O)N2c3ccccc3C=Cc3ccccc32)cc1 [Compound 4d]; < 10%
Cc1ccc(-c2nnc(N3c4ccccc4C=Cc4ccccc43)o2)cc1 [Compound 5d]; 16.2%

Write down measured inhibition at 10 µM (CAKI-1) for this compound. O=C(NNC(=O)N1c2ccccc2C=Cc2ccccc21)c1ccccc1 [Compound 4a]
< 10%

Send back CAKI-1 inhibition at 10 µM of O=C(NNC(=O)N1c2ccccc2C=Cc2ccccc21)c1ccc2ccccc2c1 [Compound 4f] only.
< 10%

Param request: inhibition at 10 µM | system CAKI-1 | item C1=Cc2ccccc2N(c2nnc(-c3ccc4ccccc4c3)o2)c2ccccc21 [Compound 5f]
33.1%

Please indicate recorded inhibition at 10 µM of O=C(NNC(=O)N1c2ccccc2C=Cc2ccccc21)c1ccc([N+](=O)[O-])cc1 [Compound 4e] measured with CAKI-1.
< 10%

Specify inhibition at 10 µM for O=C(NNC(=O)N1c2ccccc2C=Cc2ccccc21)c1ccc(Br)cc1 [Compound 4b] , system CAKI-1.
< 10%

Enter recorded inhibition at 10 µM with CAKI-1 for O=C(NNC(=O)N1c2ccccc2C=Cc2ccccc21)c1ccc(Cl)cc1 [Compound 4c] here.
< 10%

Give inhibition at 10 µM; test system CAKI-1; compound C1=Cc2ccccc2N(c2nnc(-c3ccccc3)o2)c2ccccc21 [Compound 5a]
< 10%

Give measured inhibition at 10 µM for Brc1ccc(-c2nnc(N3c4ccccc4C=Cc4ccccc43)o2)cc1 [Compound 5b] (CAKI-1).
31.9%

---

# Test system: OVCAR-8
# PROCEDURE_SUMMARY: NCI-60 one-dose screen, OVCAR-8
# Assay type: cell-based
# RUN_CONDITIONS: Homo sapiens; OVCAR-8, ovarian cancer; single dose 10 μM; read-out: Growth inhibition %
PARAMETER_MEASURED: inhibition at 10 µM

Please review the following examples before continuing.
C1=Cc2ccccc2N(c2nnc(Cc3ccccc3)o2)c2ccccc21; 16.5%
O=C(NNC(=O)N1c2ccccc2C=Cc2ccccc21)c1ccc(Br)cc1; < 10%
O=C(NNC(=O)N1c2ccccc2C=Cc2ccccc21)c1ccc2ccccc2c1; < 10%
O=C(NNC(=O)N1c2ccccc2C=Cc2ccccc21)c1ccc([N+](=O)[O-])cc1; < 10%

Please report the measured inhibition at 10 µM for C1=Cc2ccccc2N(c2nnc(-c3ccccc3)o2)c2ccccc21
< 10%

---

# inhibition at 10 µM annotations
# System: NCI-H226
# PROCEDURE_SUMMARY: NCI-60 one-dose screen, NCI-H226
# Type: cell-based
# RUN_CONDITIONS: Homo sapiens; NCI-H226, non-small cell lung cancer; single dose 10 μM; read-out: Growth inhibition %

O=C(NNC(=O)N1c2ccccc2C=Cc2ccccc21)c1ccc(Br)cc1 [Compound 4b]; < 10%
O=C(NNC(=O)N1c2ccccc2C=Cc2ccccc21)c1ccc2ccccc2c1 [Compound 4f]; < 10%
O=C(NNC(=O)N1c2ccccc2C=Cc2ccccc21)c1ccc([N+](=O)[O-])cc1 [Compound 4e]; < 10%
O=[N+]([O-])c1ccc(-c2nnc(N3c4ccccc4C=Cc4ccccc43)o2)cc1 [Compound 5e]; 13.7%
C1=Cc2ccccc2N(c2nnc(-c3ccc4ccccc4c3)o2)c2ccccc21 [Compound 5f]; 21.4%
O=C(NNC(=O)N1c2ccccc2C=Cc2ccccc21)c1ccc(Cl)cc1 [Compound 4c]; < 10%
C1=Cc2ccccc2N(c2nnc(-c3ccccc3)o2)c2ccccc21 [Compound 5a]; < 10%
C1=Cc2ccccc2N(c2nnc(Cc3ccccc3)o2)c2ccccc21 [Compound 5g]; < 10%

// next entry
Look up and state reported inhibition at 10 µM for Cc1ccc(C(=O)NNC(=O)N2c3ccccc3C=Cc3ccccc32)cc1 [Compound 4d]
< 10%

---

# Tested on: HS 578 T
# PROCEDURE_SUMMARY: NCI-60 one-dose screen, HS 578 T
# Assay type: cell-based
# RUN_CONDITIONS: Homo sapiens, breast cancer, single dose 10 μM, read-out: Growth inhibition %
Listed below: inhibition at 10 µM values for each entry.

In the examples that follow, each entry is paired with its recorded inhibition at 10 µM.
O=C(NNC(=O)N1c2ccccc2C=Cc2ccccc21)c1ccccc1; < 10%
O=C(NNC(=O)N1c2ccccc2C=Cc2ccccc21)c1ccc2ccccc2c1; < 10%
O=C(NNC(=O)N1c2ccccc2C=Cc2ccccc21)c1ccc(Br)cc1; < 10%
O=C(NNC(=O)N1c2ccccc2C=Cc2ccccc21)c1ccc([N+](=O)[O-])cc1; < 10%

Using HS 578 T as the test system, report measured inhibition at 10 µM of Brc1ccc(-c2nnc(N3c4ccccc4C=Cc4ccccc43)o2)cc1 .
14.4%

---

# ASSAYED_SYSTEM: topoisomerase II
# PROCEDURE_SUMMARY: Topoisomerase II inhibitory assay
# RUN_CONDITIONS: in vitro; doxorubicin co-assayed as reference
PARAMETER_MEASURED: pIC50
Scale: pIC50 equals -log10([C]), with [C] in mol/L.

C1=Cc2ccccc2N(c2nnc(-c3ccc4ccccc4c3)o2)c2ccccc21; 5.02
O=[N+]([O-])c1ccc(-c2nnc(N3c4ccccc4C=Cc4ccccc43)o2)cc1; 5.20
C1=Cc2ccccc2N(c2nnc(-c3ccccc3)o2)c2ccccc21; 4.81

Respond only with pIC50 recorded for C1=Cc2ccccc2N(c2nnc(Cc3ccccc3)o2)c2ccccc21
4.72

Return value of pIC50 for input Brc1ccc(-c2nnc(N3c4ccccc4C=Cc4ccccc43)o2)cc1 , no commentary.
4.99

Supply measured pIC50 of Cc1ccc(-c2nnc(N3c4ccccc4C=Cc4ccccc43)o2)cc1 in your reply.
4.77

Let me know recorded pIC50 for Clc1ccc(-c2nnc(N3c4ccccc4C=Cc4ccccc43)o2)cc1 , thanks.
4.50

---

# Test system: OVCAR-4
# PROCEDURE_SUMMARY: NCI-60 one-dose screen, OVCAR-4
# Type: cell-based
# RUN_CONDITIONS: Homo sapiens; OVCAR-4, ovarian cancer; single dose 10 μM; read-out: Growth inhibition %
inhibition at 10 µM overview

C1=Cc2ccccc2N(c2nnc(Cc3ccccc3)o2)c2ccccc21; < 10%

Please report inhibition at 10 µM for the following compound: O=C(NNC(=O)N1c2ccccc2C=Cc2ccccc21)c1ccc(Cl)cc1
< 10%

Tell me inhibition at 10 µM reported for O=C(NNC(=O)N1c2ccccc2C=Cc2ccccc21)c1ccc([N+](=O)[O-])cc1
< 10%

Provide only the value of recorded inhibition at 10 µM for Cc1ccc(C(=O)NNC(=O)N2c3ccccc3C=Cc3ccccc32)cc1
< 10%

State its inhibition at 10 µM for this compound: Brc1ccc(-c2nnc(N3c4ccccc4C=Cc4ccccc43)o2)cc1
19.6%

Indicate its recorded inhibition at 10 µM; the compound in question is O=[N+]([O-])c1ccc(-c2nnc(N3c4ccccc4C=Cc4ccccc43)o2)cc1
21.8%

Supply recorded inhibition at 10 µM for Clc1ccc(-c2nnc(N3c4ccccc4C=Cc4ccccc43)o2)cc1 here.
22.1%

Input C1=Cc2ccccc2N(c2nnc(-c3ccccc3)o2)c2ccccc21 , output reported inhibition at 10 µM.
< 10%

Return inhibition at 10 µM for the following compound: O=C(NNC(=O)N1c2ccccc2C=Cc2ccccc21)c1ccc(Br)cc1
< 10%
